Attribution: paper PMC8427023

# assay.summary: Cytotoxicity assay (CellTiter-Glo 2.0) in Calu-3 cells
# Assay type: cell-based
# reported.conditions: human, half-maximal cytotoxic concentration, read-out: SARS-CoV-2 Calu-3 CC50
Label y when CC50 is strictly below 100 µM; at or above that, label n.

molecule	category
Cc1nc(NC(=O)C(C)(C)C)sc1-c1csc(NCC(C)(C)O)n1 [4 c]	n
Cc1nc(NC(=O)C(C)(C)C)sc1-c1csc(N(CCO)CCO)n1 [4 b]	n
CN(C)C(=O)COC(=O)Cc1ccc(OC(=O)c2ccc(NC(=N)N)cc2)cc1 [CMT, Camostat, reference compound]	n

Find out if reported CC50 for Cc1nc(NC(=O)C(C)(C)C)sc1-c1csc(NCC(O)CO)n1 (centres unmarked) [4 a] is less than 100 µM
n

Find out if reported CC50 for Cc1nc(NC(=O)C(C)(C)C)sc1-c1csc(N(CC(C)(C)O)C2CCCCC2)n1 [4 d] is less than 100 µM
y

Find out if reported CC50 for CC(=O)c1cccc(N(CCO)c2nc(-c3sc(NC(=O)C(C)(C)C)nc3C)cs2)c1 [compound 2] is less than 100 µM
y

Find out if reported CC50 for Cc1nc(NC(=O)C(C)(C)C)sc1-c1csc(Nc2cccc(C(=O)O)c2)n1 [compound 1] is less than 100 µM
y

---

Below: a set of entries, each annotated with reported pIC50.
# Tested on: hRV2
# assay.summary: Multicycle CPE reduction antiviral assay, hRV2 in HeLa cells
# Type: cell-based, human rhinovirus 2
# reported.conditions: Rhinovirus A, HRV2, 72 h, 3 days
Scale for pIC50: -log10 of concentration given in mol/L; no unit attached.

compound	pIC50
Cc1nc(NC(=O)C(C)(C)C)sc1-c1csc(N(CC(C)(C)O)C2CCCCC2)n1	6.05
Cc1nc(NC(=O)C(C)(C)C)sc1-c1csc(NCC(C)(C)O)n1	6.41
Cc1nc(NC(=O)C(C)(C)C)sc1-c1csc(N(CCO)CCO)n1	5.86

Read the next record carefully.
The measured pIC50 that Cc1nc(NC(=O)C(C)(C)C)sc1-c1csc(NCC(O)CO)n1 (stereo not shown) showed for hRV2 is 5.75

---

Below: a set of entries, each annotated with reported CC50.
# assay.summary: in vitro
# reported.conditions: human

Example cases with answers are listed next.
compound	CC50
Cc1nc(NC(=O)C(C)(C)C)sc1-c1csc(N(CC(C)(C)O)C2CCCCC2)n1	4 µM
Cc1nc(NC(=O)C(C)(C)C)sc1-c1csc(NCC(O)CO)n1 (stereo not drawn)	> 200 µM
Cc1nc(NC(=O)C(C)(C)C)sc1-c1csc(NCC(C)(C)O)n1	37 µM
CC(=O)c1cccc(N(CCO)c2nc(-c3sc(NC(=O)C(C)(C)C)nc3C)cs2)c1	16 µM
Cc1nc(NC(=O)C(C)(C)C)sc1-c1csc(N(CCO)CCO)n1	125 µM

Read the next record carefully.
Briefly, CC50 measured for `Cc1nc(NC(=O)C(C)(C)C)sc1-c1csc(Nc2cccc(C(=O)O)c2)n1` : 110 µM

---

# assay.summary: in vitro
# reported.conditions: human
measurement.label: CC50 at 3 days

compound	CC50 at 3 days
Cc1nc(NC(=O)C(C)(C)C)sc1-c1csc(N(CCO)CCO)n1	> 30 µM
Cc1nc(NC(=O)C(C)(C)C)sc1-c1csc(NCC(C)(C)O)n1	> 30 µM

Read the next record carefully.
Briefly, CC50 at 3 days measured for Cc1nc(NC(=O)C(C)(C)C)sc1-c1csc(NCC(O)CO)n1 (stereo not drawn) : > 30 µM
